# System: OVCAR8
# measurement_notes: drug sensitivity score (DSS2) on cancer cell count; higher = more sensitive; extreme values may be limits of the assay
# measurement_context: co-cultured fibroblast: WI38; 72 h
Recorded drug sensitivity score, one value per entry.
Return type: number; implicit unit DSS.

Solved cases (5 shown):
>>> numeric_readout("CC(C)c1cc(C(=O)N2Cc3ccc(CN4CCN(C)CC4)cc3C2)c(O)cc1O")
18.5
>>> numeric_readout("Cc1cc2c(F)c(Oc3ncnn4cc(OC[C@@H](C)O)c(C)c34)ccc2[nH]1")
0
>>> numeric_readout("COc1cc2ncnc(Nc3ccc(F)c(Cl)c3)c2cc1OCCCN1CCOCC1")
0
>>> numeric_readout("COc1nc(N)nc2c1ncn2[C@@H]1O[C@H](CO)[C@@H](O)[C@@H]1O")
3.4
>>> numeric_readout("CC[C@]12C=CCN3CC[C@@]4(c5cc([C@@]6(C(=O)OC)C[C@@H]7C[C@@H](C(C)(F)F)CN(Cc8c6[nH]c6ccccc86)C7)c(OC)cc5N(C)[C@H]4[C@@](O)(C(=O)OC)[C@@H]1OC(C)=O)[C@@H]32")
3.7

// field: drug sensitivity score; key: CNC(=O)c1cc(Oc2ccc(NC(=O)Nc3ccc(Cl)c(C(F)(F)F)c3)cc2)ccn1 ; value = 0

// field: drug sensitivity score; key: CC(C)(C)NC(=O)[C@H]1CC[C@H]2[C@@H]3CC[C@H]4NC(=O)C=C[C@]4(C)[C@H]3CC[C@]12C [Finasteride] ; value = 0

// field: drug sensitivity score; key: COc1cccc2c1C(=O)c1c(O)c3c(c(O)c1C2=O)C[C@@](O)(C(C)=O)C[C@@H]3O[C@H]1C[C@H](N)[C@H](O)[C@H](C)O1 ; value = 15.9

// field: drug sensitivity score; key: CC(C)NC(=O)COc1cccc(-c2nc(Nc3ccc4[nH]ncc4c3)c3ccccc3n2)c1 ; value = 8.3

// field: drug sensitivity score; key: CC(C)C[C@H](NC(=O)[C@H](Cc1ccccc1)NC(=O)c1cnccn1)B(O)O ; value = 27.3
